Data provenance is paper PMC6774072.

Can you tell me inhibition at 50 µM for the items I'm about to list?
target: Sirt3 (Homo sapiens); construct: Sirt3_118−395; made in house; assay: fluorescence-based deacetylase assay with Z-Lys(acetyl)-AMC (ZMAL) substrate; type: biochemical; conditions: @ 50 µM; percent inhibition relative to controls
Sequence (Q9NTG7 118-395): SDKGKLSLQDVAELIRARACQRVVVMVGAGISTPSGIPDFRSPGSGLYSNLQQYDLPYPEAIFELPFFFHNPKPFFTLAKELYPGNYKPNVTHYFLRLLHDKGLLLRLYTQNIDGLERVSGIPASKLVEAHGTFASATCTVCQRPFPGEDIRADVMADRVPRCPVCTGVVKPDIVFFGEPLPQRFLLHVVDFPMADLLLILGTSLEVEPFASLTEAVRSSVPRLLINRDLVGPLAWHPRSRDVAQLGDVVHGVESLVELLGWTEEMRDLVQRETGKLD
The reply should be a number in %, with the unit left off.

## Input Return reported inhibition at 50 µM. Input compound: `NC(=O)c1cncc(/C=C/c2cccc(OCc3ccccc3)c2)c1`
## Output 60

## Input Return reported inhibition at 50 µM. Input compound: `COc1cc(C)c(/C=C/c2cncc(C(N)=O)c2)c(C)c1`
## Output 79

## Input Return reported inhibition at 50 µM. Input compound: `NC(=O)c1cncc(/C=C/c2ccc3c(c2)OCO3)c1`
## Output 87

## Input Return reported inhibition at 50 µM. Input compound: `COc1ccc(/C=C/c2cncc(C(N)=O)c2)cc1`
## Output 90

## Input Return reported inhibition at 50 µM. Input compound: NC(=O)c1cncc(/C=C/c2ccccc2)c1 [Compound 2b, (E)-5-Styrylnicotinamide]
## Output 89
